Tested on: P. aeruginosa (ATCC 27853)
protocol_text: MIC, broth microdilution
Format: cell-based
details: Table 1, antibiotic alone; in µg/mL (unit assumed)
This listing pairs compounds with measured MIC.
Answer with a number only.

Worked cases, MIC given:
* [H]/N=C(/N)N[C@H]1[C@H](O)[C@@H](O)[C@H](O[C@@H]2O[C@@H](C)[C@](O)(C=O)[C@H]2O[C@@H]2O[C@@H](CO)[C@H](O)[C@@H](O)[C@@H]2NC)[C@@H](N/C(N)=N\[H])[C@@H]1O | 16
* O=C(O)c1cn(C2CC2)c2cc(N3CCNCC3)c(F)cc2c1=O | 0.25
* CN[C@H](CC(C)C)C(=O)N[C@H]1C(=O)N[C@@H](CC(N)=O)C(=O)N[C@H]2C(=O)N[C@H]3C(=O)N[C@H](C(=O)N[C@H](C(=O)O)c4cc(O)cc(O)c4-c4cc3ccc4O)[C@H](O)c3ccc(c(Cl)c3)Oc3cc2cc(c3O[C@@H]2O[C@H](CO)[C@@H](O)[C@H](O)[C@H]2O[C@H]2C[C@](C)(N)[C@H](O)[C@H](C)O2)Oc2ccc(cc2Cl)[C@H]1O | 1024
* CC1(C)S[C@@H]2[C@H](NC(=O)[C@H](N)c3ccc(O)cc3)C(=O)N2[C@H]1C(=O)O | 1024

Reported MIC for CO[C@H]1/C=C/O[C@@]2(C)Oc3c(C)c(O)c4c(O)c(c(/C=N/N5CCN(C)CC5)c(O)c4c3C2=O)NC(=O)/C(C)=C\C=C\[C@H](C)[C@H](O)[C@@H](C)[C@@H](O)[C@@H](C)[C@H](OC(C)=O)[C@@H]1C was 32

Reference source for all entries: patent US12377052B2
